Assay: Inhibition of LPS-stimulated TNF-alpha release in human PBMC measured after 4 hrs by ELISA
Type: toxicity, cell-based
pIC50: −log10 of the molar value.
REPORTED_METRIC: pIC50

{"MOLECULE": "S=c1cc(CC2CCCCO2)[nH]c2nc(Nc3c4c(cc5c3CCC5)CCC4)nn12 (centres undefined)", "pIC50": "< 4.70"}

Noted for O=c1cc(CC2CCCCO2)[nH]c2nc(Nc3c4c(cc5c3CCC5)CCC4)nn12 (centres undefined) : its pIC50 reads < 4.40

Reported pIC50 for S=c1cc(Cc2ccccn2)[nH]c2nc(Nc3c4c(cc5c3CCC5)CCC4)nn12 was < 4.40

Looking up O=c1cc(Cc2ccccn2)[nH]c2nc(Nc3c4c(cc5c3CCC5)CCC4)nn12 , I found its pIC50 recorded as < 4.40
